Reference source: patent US20170227547A1

Catalogue of rel. KD (Ustekinumab = 1) readings, one per entry.
target_desc: human neonatal Fc receptor (FcRn), non-covalent complex with beta-2-microglobulin (human) (UniProt P55899)
Sequence (P55899 other isoform, or with tags, fused parts or gaps limits assumed, chain 1 of 2): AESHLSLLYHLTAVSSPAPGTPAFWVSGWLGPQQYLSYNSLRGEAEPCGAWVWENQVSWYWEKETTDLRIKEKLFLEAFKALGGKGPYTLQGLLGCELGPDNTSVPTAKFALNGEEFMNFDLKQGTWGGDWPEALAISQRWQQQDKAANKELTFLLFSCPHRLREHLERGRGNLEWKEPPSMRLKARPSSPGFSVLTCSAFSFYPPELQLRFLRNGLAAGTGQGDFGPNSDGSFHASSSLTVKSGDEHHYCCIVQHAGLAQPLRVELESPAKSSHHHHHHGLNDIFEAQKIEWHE
Sequence (b2m, as listed by the source limits assumed, chain 2 of 2): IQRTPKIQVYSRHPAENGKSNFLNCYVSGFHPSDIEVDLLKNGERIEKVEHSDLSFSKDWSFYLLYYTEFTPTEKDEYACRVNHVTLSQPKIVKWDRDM
measurement_description: SPR, huFcRn immobilised, pH 6.0, steady state affinity normalised to Ustekinumab
outcome_measure: rel. KD (Ustekinumab = 1)

# binder, outcome_measure, assay_result
data = [
    ("Briakinumab (antibody, V domains shown, Fully human IgG1; also called ABT 874; J 695) VH: QVQLVESGGGVVQPGRSLRLSCAASGFTFSSYGMHWVRQAPGKGLEWVAFIRYDGSNKYYADSVKGRFTISRDNSKNTLYLQMNSLRAEDTAVYYCKTHGSHDNWGQGTMVTVSS VL: QSVLTQPPSVSGAPGQRVTISCSGSRSNIGSNTVKWYQQLPGTAPKLLIYYNDQRPSGVPDRFSGSKSGTSASLAITGLQAEDEADYYCQSYDRYTHPALLFGTGTKVTVLG", "rel. KD (Ustekinumab = 1)", 0.2),
    ("Ustekinumab (antibody, V domains shown, Fully human IgG1; also called CNTO 1275; Stelara) VH: EVQLVQSGAEVKKPGESLKISCKGSGYSFTTYWLGWVRQMPGKGLDWIGIMSPVDSDIRYSPSFQGQVTMSVDKSITTAYLQWNSLKASDTAMYYCARRRPGQGYFDFWGQGTLVTVSS VL: DIQMTQSPSSLSASVGDRVTITCRASQGISSWLAWYQQKPEKAPKSLIYAASSLQSGVPSRFSGSGSGTDFTLTISSLQPEDFATYYCQQYNIYPYTFGQGTKLEIK", "rel. KD (Ustekinumab = 1)", 1),
    ("mAb 2 (antibody, V domains shown, Fv domain of Briakinumab on the Ustekinumab constant domains (IgG1)) VH: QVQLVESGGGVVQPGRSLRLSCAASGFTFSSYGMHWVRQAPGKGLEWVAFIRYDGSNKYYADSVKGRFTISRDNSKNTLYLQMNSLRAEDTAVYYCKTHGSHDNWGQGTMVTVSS VL: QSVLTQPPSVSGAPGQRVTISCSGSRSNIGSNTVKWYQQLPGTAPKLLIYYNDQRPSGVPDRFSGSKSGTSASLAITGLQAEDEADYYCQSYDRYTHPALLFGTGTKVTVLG", "rel. KD (Ustekinumab = 1)", 0.3),
    ("mAb 1 (antibody, V domains shown, Fv domain of Ustekinumab on the constant parts of Briakinumab (IgG1)) VH: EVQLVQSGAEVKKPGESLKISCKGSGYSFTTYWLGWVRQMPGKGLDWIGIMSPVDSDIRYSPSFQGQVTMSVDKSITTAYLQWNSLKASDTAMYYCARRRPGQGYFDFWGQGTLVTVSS VL: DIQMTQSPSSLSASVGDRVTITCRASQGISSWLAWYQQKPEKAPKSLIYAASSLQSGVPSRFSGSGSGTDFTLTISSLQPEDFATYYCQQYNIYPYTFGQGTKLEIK", "rel. KD (Ustekinumab = 1)", 1),
    ("mAb 9 (antibody, IgG1, V domains shown, Briakinumab variant (IgG1) with three positively charged residues of the light chain CDRs mutated to alanine; also called Briakinumab with LC mutations R27A, R55A, R94A) VH: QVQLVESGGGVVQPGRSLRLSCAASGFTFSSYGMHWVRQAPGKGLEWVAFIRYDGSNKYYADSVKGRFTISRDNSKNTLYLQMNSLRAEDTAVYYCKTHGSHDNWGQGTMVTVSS VL: QSVLTQPPSVSGAPGQRVTISCSGSASNIGSNTVKWYQQLPGTAPKLLIYYNDQAPSGVPDRFSGSKSGTSASLAITGLQAEDEADYYCQSYDAYTHPALLFGTGTKVTVL", "rel. KD (Ustekinumab = 1)", 0.4),
    ("mAb 3 (antibody, V domains shown, Heavy chains of Ustekinumab and light chains of Briakinumab (whole chains)) VH: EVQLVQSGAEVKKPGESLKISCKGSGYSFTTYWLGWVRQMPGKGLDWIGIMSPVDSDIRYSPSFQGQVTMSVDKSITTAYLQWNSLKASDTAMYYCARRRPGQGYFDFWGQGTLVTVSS VL: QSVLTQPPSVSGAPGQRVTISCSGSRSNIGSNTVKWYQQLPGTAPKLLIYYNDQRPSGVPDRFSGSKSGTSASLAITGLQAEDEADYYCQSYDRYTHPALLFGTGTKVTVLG", "rel. KD (Ustekinumab = 1)", 0.2),
    ("mAb 8 (antibody, IgG1, V domains shown, Briakinumab variant (IgG1) with five positively charged heavy chain residues mutated; also called Briakinumab with HC mutations R16A, R19A, K57A, K64A, R83A) VH: QVQLVESGGGVVQPGASLALSCAASGFTFSSYGMHWVRQAPGKGLEWVAFIRYDGSNAYYADSVAGRFTISRDNSKNTLYLQMNSLAAEDTAVYYCKTHGSHDNWGQGTMVTVSS VL: QSVLTQPPSVSGAPGQRVTISCSGSRSNIGSNTVKWYQQLPGTAPKLLIYYNDQRPSGVPDRFSGSKSGTSASLAITGLQAEDEADYYCQSYDRYTHPALLFGTGTKVTVL", "rel. KD (Ustekinumab = 1)", 0.4),
]
